- Test system: Serotonin 2 (5-HT2) receptor (Rattus norvegicus) (UniProt P30994+P08909+P14842)
- Sequence (P08909 whole entry, looked up): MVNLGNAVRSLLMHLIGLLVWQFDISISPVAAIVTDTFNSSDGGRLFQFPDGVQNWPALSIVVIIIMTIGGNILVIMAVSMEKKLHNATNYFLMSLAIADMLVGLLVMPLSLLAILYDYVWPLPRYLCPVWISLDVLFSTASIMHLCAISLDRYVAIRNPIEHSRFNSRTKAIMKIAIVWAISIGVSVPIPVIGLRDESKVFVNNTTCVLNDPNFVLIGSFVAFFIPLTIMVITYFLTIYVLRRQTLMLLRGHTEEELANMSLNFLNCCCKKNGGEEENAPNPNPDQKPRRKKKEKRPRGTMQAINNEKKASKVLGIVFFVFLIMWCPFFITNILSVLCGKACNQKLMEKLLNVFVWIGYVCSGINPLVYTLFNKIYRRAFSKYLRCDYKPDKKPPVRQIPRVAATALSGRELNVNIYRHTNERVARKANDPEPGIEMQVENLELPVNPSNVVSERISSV
- Sequence (P14842 whole entry, looked up): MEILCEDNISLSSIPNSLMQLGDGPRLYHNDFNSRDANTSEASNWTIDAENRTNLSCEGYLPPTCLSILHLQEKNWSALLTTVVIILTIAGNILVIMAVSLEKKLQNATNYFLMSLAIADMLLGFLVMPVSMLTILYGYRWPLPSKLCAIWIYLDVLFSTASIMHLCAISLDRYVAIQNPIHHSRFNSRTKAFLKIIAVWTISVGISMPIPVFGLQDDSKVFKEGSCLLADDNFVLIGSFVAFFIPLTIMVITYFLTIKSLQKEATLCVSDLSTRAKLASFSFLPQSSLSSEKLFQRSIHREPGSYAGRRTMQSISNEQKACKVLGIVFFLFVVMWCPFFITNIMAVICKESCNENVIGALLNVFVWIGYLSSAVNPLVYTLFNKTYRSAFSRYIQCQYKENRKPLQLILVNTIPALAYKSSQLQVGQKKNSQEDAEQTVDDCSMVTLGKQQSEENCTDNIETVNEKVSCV
- Sequence (P30994 whole entry, looked up): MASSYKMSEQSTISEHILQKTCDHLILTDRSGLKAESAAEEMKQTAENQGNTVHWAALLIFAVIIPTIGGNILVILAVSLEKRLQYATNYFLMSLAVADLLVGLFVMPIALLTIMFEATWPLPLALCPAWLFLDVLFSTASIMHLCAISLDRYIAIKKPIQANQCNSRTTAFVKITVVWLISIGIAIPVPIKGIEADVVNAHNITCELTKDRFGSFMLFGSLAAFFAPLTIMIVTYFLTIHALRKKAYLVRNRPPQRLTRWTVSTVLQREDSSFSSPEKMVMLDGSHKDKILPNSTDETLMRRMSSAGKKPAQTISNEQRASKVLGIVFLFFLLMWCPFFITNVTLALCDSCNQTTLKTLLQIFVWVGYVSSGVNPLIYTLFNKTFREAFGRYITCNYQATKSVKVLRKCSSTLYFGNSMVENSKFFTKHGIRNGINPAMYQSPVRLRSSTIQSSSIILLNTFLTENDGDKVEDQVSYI
- Procedure details: Antagonistic activity against (5-hydroxytryptamine 2 receptor) serotonin-induced contractions in the rat jugular vein
- Type: functional
Quick reference: -Log KB of the listed items.

- Molecule: "CC(C)n1cc2c3c(cccc31)[C@H]1C[C@@H](C(N)=O)CN(C)[C@@H]1C2"
  Value comparator: "="
  -Log KB: 8.7
- Molecule: "CCn1cc2c3c(cccc31)[C@H]1C[C@@H](C(N)=O)CN(C)[C@@H]1C2"
  Value comparator: "="
  -Log KB: 8.44
- Molecule: "CCCCn1cc2c3c(cccc31)[C@H]1C[C@@H](C(=O)NC3CCCCC3)CN(C)[C@@H]1C2"
  Value comparator: "="
  -Log KB: 7.5
- Molecule: "CN1C[C@H](C(=O)NC2CCCC2)C[C@@H]2c3cccc4[nH]cc(c34)C[C@H]21"
  Value comparator: "="
  -Log KB: 8.87
- Molecule: "CN1C[C@H](c2nnnn2C2CCCCC2)C[C@@H]2c3cccc4[nH]cc(c34)C[C@H]21"
  Value comparator: "<"
  -Log KB: 6.52

----------
- Test system: Serotonin 2 (5-HT2) receptor (Rattus norvegicus) (UniProt P30994+P08909+P14842)
- Procedure details: Antagonistic activity against (5-hydroxytryptamine 2 receptor) serotonin-induced contractions in the rat jugular vein
- Format: functional

- Molecule: "CN1C[C@H](C(N)=O)C[C@@H]2c3cccc4[nH]cc(c34)C[C@H]21"
  Value comparator: "="
  -Log KB: 7
- Molecule: "CC(C)n1cc2c3c(cccc31)[C@H]1C[C@@H](C(=O)NC3CCCC3)CN(C)[C@@H]1C2"
  Value comparator: "="
  -Log KB: 10.3
- Molecule: "CN1C[C@H](c2nnnn2C2CCCCC2)C[C@@H]2c3cccc4c3c(cn4C)C[C@H]21"
  Value comparator: "<"
  -Log KB: 7
- Molecule: "CN1C[C@H](CC(=O)NC2CCCCC2)C[C@@H]2c3cccc4[nH]cc(c34)C[C@H]21"
  Value comparator: "="
  -Log KB: 8.05
- Molecule: "CC(C)Cn1cc2c3c(cccc31)[C@H]1C[C@@H](C(=O)NC3CCCCC3)CN(C)[C@@H]1C2"
  Value comparator: "<"
  -Log KB: 7
- Molecule: "COC1CCC(C(=O)N[C@@H]2C[C@@H]3c4cccc5c4c(cn5C)C[C@H]3N(C)C2)CC1 (stereo partly drawn)"
  Value comparator: "="
  -Log KB: 8.71
- Molecule: "CC(C)n1cc2c3c(cccc31)[C@H]1C[C@@H](C(=O)NC3CCCCC3)CN(C)[C@@H]1C2"
  Value comparator: "="
  -Log KB: 9.67
- Molecule: "CN1C[C@H](C(=O)NC2CCCCC2)C[C@@H]2c3cccc4c3c(cn4C)C[C@H]21"
  Value comparator: "="
  -Log KB: 9.7
- Molecule: "CN1C[C@H](CC(=O)NC2CCCCC2)C[C@@H]2c3cccc4c3c(cn4C)C[C@H]21"
  Value comparator: "="
  -Log KB: 8.97
- Molecule: "CC(C)n1cc2c3c(cccc31)[C@H]1C[C@@H](CC(=O)NC3CCCCC3)CN(C)[C@@H]1C2"
  Value comparator: "="
  -Log KB: 8.88
- Molecule: "CCCn1cc2c3c(cccc31)[C@H]1C[C@@H](C(=O)NC3CCCCC3)CN(C)[C@@H]1C2"
  Value comparator: "="
  -Log KB: 8
- Molecule: "CC(C)Cn1cc2c3c(cccc31)[C@H]1C[C@@H](C(=O)NC3CCCC3)CN(C)[C@@H]1C2"
  Value comparator: "<"
  -Log KB: 7
- Molecule: "CN1C[C@H](C(=O)NC2CCCC2)C[C@@H]2c3cccc4c3c(cn4C)C[C@H]21"
  Value comparator: "="
  -Log KB: 9.23
- Molecule: "CCCCCCCCn1cc2c3c(cccc31)[C@H]1C[C@@H](C(=O)NC3CCCCC3)CN(C)[C@@H]1C2"
  Value comparator: "<"
  -Log KB: 7
- Molecule: "CN1C[C@H](C(=O)NC2CCCCC2)C[C@@H]2c3cccc4c3c(cn4Cc3ccccc3)C[C@H]21"
  Value comparator: "<"
  -Log KB: 7
- Molecule: "CN1C[C@H](C(N)=O)C[C@@H]2c3cccc4c3c(cn4C)C[C@H]21"
  Value comparator: "="
  -Log KB: 7.81
- Molecule: "CCn1cc2c3c(cccc31)[C@H]1C[C@@H](C(=O)NC3CCCC3)CN(C)[C@@H]1C2"
  Value comparator: "="
  -Log KB: 9.8
- Molecule: "CCn1cc2c3c(cccc31)[C@H]1C[C@@H](C(=O)NC3CCCCC3)CN(C)[C@@H]1C2"
  Value comparator: "="
  -Log KB: 9.25
